Biological target: Acetylcholinesterase (Electrophorus electricus)
Assay: Inhibition of electric eel AChE using acetylthiocholine iodide as substrate preincubated with enzyme for 20 mins followed by substrate addition and measured after 20 mins by Ellman's method
Design: concentration or dose not given beside the values
Conditions: time 40.0 min
Activity calls are given as the source filed them. The calls are words filed in the database; no cut-off is given here.
EXPERIMENTAL_ENDPOINT: inhibition

Observe how each entry below is paired with its result.
COc1ccc(C(C)=O)c(OC(=O)N2CCCCC2)c1    6.9%
COc1ccc(C(C)=O)c(OC(=O)N(C)Cc2ccc(Br)cc2)c1    34%
C=CCc1ccc(OC(=O)N(C)Cc2ccc(Br)cc2)c(OC)c1    inactive
COc1ccc(C(C)=O)c(OC(=O)N(C)Cc2ccc(F)cc2)c1    53%
COc1ccc(C(C)=O)c(OC(=O)N2CCC(C)CC2)c1    33%

In one line, give reported inhibition of the entry COc1ccc(C(C)=O)c(OC(=O)N(C)Cc2cccc(Br)c2)c1 . inactive

Identify inhibition associated with the molecule CCN(C)C(=O)Oc1cc(OC)ccc1C(C)=O 1.7%
